system: MCF7; experiment: Growth inhibition of human MCF7 cells after 48 hrs by SRB assay; assay type: functional; conditions: MCF7, 48 h
reported.property: GI50 (µM)
Field: numeric (µM). Do not append units.

Given C=C1C[C@H](OC(C)=O)C(=O)C(C)(C)/C=C/[C@@H](C)C(=O)[C@@]2(OC(C)=O)C[C@H](C)[C@H](OC(=O)c3ccccc3)[C@]2(O)[C@H]1OC(C)=O [PUBESCENOL] , report its GI50 on MCF7. 69

Please respond with reported GI50 (system MCF7) for CC1=C2C=C3CC[C@@H]4C(C)(C)[C@H](O)CC[C@@]4(C)[C@@H]3C[C@H]2OC1=O [HELIOSCOPINOLIDE A] . 67.5

Report value only: GI50, MCF7, COc1cccc2c1C(=O)c1c(O)c3c(c(O)c1C2=O)C[C@@](O)(C(=O)CO)C[C@@H]3O[C@H]1C[C@H](N)[C@H](O)[C@H](C)O1 [DOXORUBICIN] 42.8

Report value: GI50, system: MCF7, compound: CC(=O)O[C@H]1[C@H](C)C[C@]2(O)C(=O)/C(C)=C/CC(C)(C)[C@H](OC(C)=O)C[C@@H](OC(=O)c3ccccc3)/C(C)=C/[C@@H]12 [PUBESCENE D] 37.5

Look up and report GI50, with MCF7 as system, for CC1=C2C=C3CC[C@@H]4C(C)(C)[C@@H](O)CC[C@@]4(C)[C@@H]3C[C@H]2OC1=O [HELIOSCOPINOLIDE B] 77

Reference source for all entries: ChEMBL document CHEMBL1151219
